# experimental-system: Proteinase-activated receptor 1 (Homo sapiens, UniProt P25116)
# Sequence (P25116 whole entry): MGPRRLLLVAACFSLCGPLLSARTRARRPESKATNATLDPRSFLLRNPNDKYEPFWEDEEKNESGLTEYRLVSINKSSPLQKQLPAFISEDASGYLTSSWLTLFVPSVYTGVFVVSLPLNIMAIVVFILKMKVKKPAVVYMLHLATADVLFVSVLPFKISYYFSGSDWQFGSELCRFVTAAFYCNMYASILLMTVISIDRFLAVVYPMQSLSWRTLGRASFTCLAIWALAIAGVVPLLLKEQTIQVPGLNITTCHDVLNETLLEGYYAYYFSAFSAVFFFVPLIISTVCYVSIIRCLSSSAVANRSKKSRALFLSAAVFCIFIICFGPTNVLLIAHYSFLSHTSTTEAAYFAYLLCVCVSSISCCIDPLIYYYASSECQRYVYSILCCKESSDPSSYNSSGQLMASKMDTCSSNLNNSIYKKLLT
# protocol-text: Displacement of [3H]haTRAP from PAR1 in human platelets
Kindly state Ki for each of the entries shown.
Quick reminder: number only, in nM, skip the unit.

Requested read-out: Ki. Entry: `CCOC(=O)N[C@@H]1CC[C@@H]2[C@@H](C1)C[C@H]1C(=O)O[C@H](C)[C@H]1[C@H]2/C=C/c1ccc(-c2cc(F)cc(F)c2)cn1`
5.9

And then `CCOC(=O)N[C@@H]1CC[C@@H]2[C@@H](C1)C[C@H]1C(=O)O[C@H](C)[C@H]1[C@H]2/C=C/c1ccc(-c2cccc(C(F)(F)F)c2)cn1` , what is it?
13

And then `CC(=O)N[C@@H]1CC[C@@H]2[C@@H](C1)C[C@H]1C(=O)O[C@H](C)[C@H]1[C@H]2/C=C/c1ccc(-c2cccc(F)c2)cn1` , what is it?
6.2

And then `C[C@H]1OC(=O)[C@@H]2C[C@@H]3C[C@H](NS(C)(=O)=O)CC[C@H]3[C@H](/C=C/c3ccc(-c4cccc(C(F)(F)F)c4)cn3)[C@H]12` , what is it?
10
